Hello, the source for this data is ChEMBL document CHEMBL1201862, in case you need it.

# System: UACC-62
# assay_name: NCI tumour cell line growth inhibition, 48 h
Active and inactive are the calls of the source. Cut-off read from the data, not from the text of the source: active = GI50 up to about 1.1 µM and inactive = higher.
GI50 reference
assay_endpoint: GI50

>>> df
                                   molecule  assay_endpoint      endpoint_result
0                  Cc1ccc2c(n1)C(=O)C=CC2=O            GI50   13.7 µM (inactive)
1  COc1ccc(NC(=O)CSc2nc(C)nc3c2sc(=S)n3-c2ccccc2)cc1            GI50   > 10 µM (inactive)
2  COc1ccc2c(c1)[C@@H]1c3cc(OC)c(OC)cc3CCN1CCC2            GI50  > 100 µM (inactive)
3       Cc1ccc(Nc2nc3[nH]ccc3c(=O)[nH]2)cc1            GI50   93.8 µM (inactive)
4          CCOC(=O)/C(C(N)=O)=C(/O)c1cnccn1            GI50  > 100 µM (inactive)
5               CCOC(=O)Nc1sc2c(c1C#N)CCCC2            GI50   67.1 µM (inactive)
6  CCOc1ccc(-n2c(=O)n3c(Nc4ccc(Cl)cc4)nc4c(c(=O)n(C)c(=O)n4C)n3c2=O)cc1            GI50   18.1 µM (inactive)
7  C=C1C(=O)C23CC1CCC2C12CO[C@@H]4OCC(C)(CC[C@@H]1OC3=O)C42 (stereo not given in full)            GI50   11.7 µM (inactive)
8  O=C1/C(=C\c2ccc(Cl)cc2Cl)Sc2scc(-c3cccc([N+](=O)[O-])c3)[n+]21            GI50   8.65 µM (inactive)
9  CO[C@H](c1ccccc1)[C@H](O)[C@](O)(c1ccccc1)P(=O)(OC)OC            GI50  > 100 µM (inactive)

* * *

GI50 reference
# Tested on: SN12C
# assay_name: NCI tumour cell line growth inhibition, 48 h
Calls of active or inactive are those of the source. No stated cut-off is given here; in the data, active = GI50 up to about 1.1 µM and inactive = higher.
assay_endpoint: GI50

                                    compound  assay_endpoint      endpoint_result
 0  O=C(N/N=C1\CCc2ccccc2C1)N/N=C1\CCc2ccccc2C1            GI50   > 10 µM (inactive)
 1  O=C1c2ccccc2C2(O)N(c3ccccc3)C(=S)N(c3ccccc3)C12O (centres undefined)            GI50  > 100 µM (inactive)
 2  CC1C/C(=N\N(C)C)C(C#N)(C#N)C1(C#N)C#N (centres undefined)            GI50     19 µM (inactive)
 3           [O-][n+]1nc(N2CCOCC2)nc2ccccc21            GI50  > 100 µM (inactive)
 4  COC(=O)/C=C\C(C#N)(C#N)/N=C/c1ccc(OC)cc1            GI50   15.3 µM (inactive)
 5       CCOC(=O)/C(=C\NC#N)c1nc2ccccc2[nH]1            GI50  > 100 µM (inactive)
 6                COc1cc2c(cc1OC)C(CCN)=NCC2            GI50     19 µM (inactive)
 7  O=C(CC(=O)N(C(=O)c1ccccc1)c1ccc(Cl)cc1)N/N=C\c1ccccc1O            GI50  > 100 µM (inactive)
 8  C=C1C(=O)C23CC1CCC2C12CO[C@H](O)[C@H]1C(C)(C)[C@H](OC(C)=O)C[C@H]2OC3=O (some centres undefined)            GI50   21.1 µM (inactive)
 9  CC(=O)OCc1ccc2c(c1)C(O)NC(=O)O2 (centres undefined)            GI50   50.7 µM (inactive)
10            CN(CC1(CO)CCC1)c1cc(Cl)nc(N)n1            GI50  > 100 µM (inactive)
11  CC(C)(C)[Si](C)(C)O/N=C\c1cccc(O[Si](C)(C)C(C)(C)C)c1            GI50   19.9 µM (inactive)
12  Cc1ccc(S(=O)(=O)OCC/C(=C\[Si](C)(C)C)c2ccccc2)cc1            GI50  > 100 µM (inactive)
13  COC(=O)c1c(O)ccc2c1c1c(n2CCc2ccc(OC)c(OC)c2)C(=O)c2ccccc2C1=O            GI50   21.9 µM (inactive)
14  CCOc1ccccc1/N=N/C1C(=O)N(C(=O)CC(=O)Nc2ccccc2OC)N=C1C (centres undefined)            GI50  > 100 µM (inactive)
15  Cc1ccc(S(=O)(=O)NC(=O)NC(Cc2ccc(O)cc2)C(=O)O)cc1 (centres undefined)            GI50  > 100 µM (inactive)
16  O=C1CN(c2ccccc2)C(=O)CN1CCN1CC(=O)N(c2ccccc2)CC1=O            GI50  > 100 µM (inactive)
17  CC(=O)Oc1ccc(OC(Oc2ccccc2)c2ccccc2)cc1 (centres undefined)            GI50     15 µM (inactive)
18  O=C(O)c1ccccc1C(=O)c1ccc2c(c1)Cc1ccccc1-2            GI50  > 100 µM (inactive)
19              COc1cccc2cc(C(C)=O)c(=O)oc12            GI50  > 100 µM (inactive)
20  Cn1ccnc1CC(C)(O)c1ccccc1 (centres undefined)            GI50  > 100 µM (inactive)
21  Fc1cccc(Cl)c1C1SCc2nc3cc4ccccc4cc3n21 (centres undefined)            GI50   61.1 µM (inactive)
22      CN(C)/C(=N/C(=O)Nc1ccccc1)SCc1ccccc1            GI50  > 100 µM (inactive)
23  CCCCn1c(CSc2ccc(Cl)cc2)c(C(=O)OCC)c2cc(OC)c(Br)cc21            GI50  > 100 µM (inactive)
